target: human OAT3 (Homo sapiens); experiment: Inhibition of OAT3-mediated enalaprilat uptake in OAT3-transfected HEK293 cells; settings: IC50, inhibition of enalaprilat uptake by selected drugs, HEK293-OAT3, enalaprilat 30 µM, 30 min preincubation, mean ± sd of three incubations
Exercise: state measured pIC50 for each of the compounds provided.
Answers are plain numbers, as −log10 of the molar value.

CCC1=C(C)CN(C(=O)NCCc2ccc(S(=O)(=O)NC(=O)N[C@H]3CC[C@H](C)CC3)cc2)C1=O [Glimepiride]: 6.43
CCCc1nc2c(C)cc(-c3nc4ccccc4n3C)cc2n1Cc1ccc(-c2ccccc2C(=O)O)cc1: 6.07

Hi there! I need pIC50 for each item below, if you can.
1. CCOc1cc(CC(=O)N[C@@H](CC(C)C)c2ccccc2N2CCCCC2)ccc1C(=O)O [Repaglinide]
2. O=C1C(CC[S+]([O-])c2ccccc2)C(=O)N(c2ccccc2)N1c1ccccc1 (stereo not shown)
3. CCCCC(=O)N(Cc1ccc(-c2ccccc2-c2nnn[nH]2)cc1)[C@H](C(=O)O)C(C)C
4. Cc1nc(-c2ccc(OCC(C)C)c(C#N)c2)sc1C(=O)O
5. Cc1ccc(C)c(OCCCC(C)(C)C(=O)O)c1

Solution:
[5.68, 6.02, 6.05, 6.39, 5.46]

----------
Exercise: state measured pIC50 for each of the compounds provided.
Biological target: human OAT3 (Homo sapiens, UniProt Q8TCC7)
Sequence (Q8TCC7 whole entry): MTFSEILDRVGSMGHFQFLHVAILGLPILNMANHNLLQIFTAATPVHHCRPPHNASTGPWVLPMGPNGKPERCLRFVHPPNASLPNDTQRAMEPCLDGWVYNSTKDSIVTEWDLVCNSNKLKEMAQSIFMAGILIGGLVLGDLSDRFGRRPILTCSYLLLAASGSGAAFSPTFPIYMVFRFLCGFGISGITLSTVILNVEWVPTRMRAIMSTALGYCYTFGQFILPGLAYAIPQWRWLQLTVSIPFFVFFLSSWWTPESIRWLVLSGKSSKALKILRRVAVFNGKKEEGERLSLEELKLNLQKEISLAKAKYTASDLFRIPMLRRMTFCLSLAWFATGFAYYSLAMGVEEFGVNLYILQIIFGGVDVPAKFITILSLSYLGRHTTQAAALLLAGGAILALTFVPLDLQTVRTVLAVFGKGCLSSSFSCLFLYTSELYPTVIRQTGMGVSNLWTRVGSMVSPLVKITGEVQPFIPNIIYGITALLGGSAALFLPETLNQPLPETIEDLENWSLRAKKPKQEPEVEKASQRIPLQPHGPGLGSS
Assay: Inhibition of OAT3-mediated enalaprilat uptake in OAT3-transfected HEK293 cells
Description: Because the present study examined a number of compounds with structural diversity, a 30 min preincubation was carried out for all compounds in order to eliminate inconsistencies. […] OAT3-transfected HEK293 cells or mock cells were washed thrice with pre-warmed HBSS and preincubated with HBSS containing different concentrations of inhibitors for 30 min at 37°C. […]
Numbers only, as −log10 of the molar value.

COc1c(O)cc(O)c2c(=O)cc(-c3ccccc3)oc12: 6.62
O=c1c(-c2ccc(O)cc2)coc2cc(O)ccc12: 5.24

Hi there! I need pIC50 for each item below, if you can.
1. O=c1cc(-c2ccc(O)c(O)c2)oc2cc(O)cc(O)c12
2. O=c1c(O)c(-c2ccc(O)c(O)c2)oc2cc(O)cc(O)c12
3. CC(C)=CCc1c(-c2ccc(O)cc2O)oc2c(CC=C(C)C)c(O)cc(O)c2c1=O
4. O=C1c2c(O)cc(O)cc2OC(c2ccc(O)c(O)c2)C1O (stereo not drawn)
5. O=c1c(O)c(-c2ccc(O)c(O)c2)oc2c(O)c(O)cc(O)c12

Solution:
6.18
6.12
5.91
5.15
6.15

----------
biological target: human OAT3 (Homo sapiens); experiment: Inhibition of OAT3-mediated enalaprilat uptake in OAT3-transfected HEK293 cells
test-readout: pIC50
Numbers only, as −log10 of the molar value.

Worked examples follow.
O=c1c(O)c(-c2ccc(O)cc2)oc2cc(O)cc(O)c12: 7.06
O=C1C[C@@H](c2ccc(O)c(O)c2)Oc2cc(O)cc(O)c21: 5.83
O=c1cc(-c2ccc(O)cc2)oc2cc(O[C@@H]3O[C@H](CO)[C@@H](O)[C@H](O)[C@H]3O)cc(O)c12: 5.11
O=c1c(O[C@@H]2O[C@H](CO)[C@@H](O)[C@H](O)[C@H]2O)c(-c2ccc(O)c(O)c2)oc2cc(O)cc(O)c12: 4.93
COc1c(O[C@@H]2O[C@H](C(=O)O)[C@@H](O)[C@H](O)[C@H]2O)cc(O)c2c(=O)cc(-c3ccccc3)oc12 [Wogonoside]: 4.93
O=c1c(O)c(-c2ccc(O)c(O)c2)oc2cc(O)ccc12: 5.42
O=c1c(O)c(-c2cc(O)c(O)c(O)c2)oc2cc(O)cc(O)c12: 4.65
O=c1cc(-c2ccccc2)oc2cc(O)cc(O)c12: 7.36
O=c1c(O)c(-c2ccccc2)oc2cc(O)cc(O)c12: 7.52
COc1c(O)cc2oc(-c3ccccc3)cc(=O)c2c1O: 6.66

Record O=c1cc(-c2ccc(O)cc2)oc2cc(O)cc(O)c12 , field pIC50: 6.48

This collection of values is drawn from paper PMC7271668.
